The entries below come with measured GI50 values attached.
Test system: DU-145
test: cells
Set-up: species or system JFCR39 human cancer cell lines; JFCR39 panel growth inhibition, sulforhodamine B total protein after 48 h
condition.set: Homo sapiens, DU-145, 48 h
// unit must come after the numeric part

Solved cases (3 shown):
| compound | GI50 |
| --- | --- |
| C=C1CC[C@H]2[C@]3(C)C[C@@H](C=C(C)C)O[C@H]3CC[C@]2(C)[C@@H]1Cc1c(OC)oc(CO)c(C)c1=O [Compound 17] | 13.2 µM |
| C=C1CCC2C(C)(CCC=C(C)C)C(O)CCC2(C)C1Cc1c(OC)oc(C)c(C(=O)OC)c1=O (stereo not shown) [Compound 14] | 11.8 µM |
| C=C1CCC2C(C)(CCC=C(C)C)C(O)CCC2(C)C1Cc1c(OC)oc(CO)c(C(=O)OC)c1=O (stereo not shown) [Compound 13] | 15.2 µM |

Lab note: C=C1CCC2C(C)(CCC=C(C)C)C(O)CCC2(C)C1Cc1c(OC)oc(CO)c(C)c1=O (stereo not shown) [Compound 12] gave GI50 of 11.8 µM

====

test: cytotoxicity in Drosophila l(2)mbn cells
Assay type: cell-based
condition.set: Drosophila, l(2)mbn cells (larval blood cell-derived), 10 µM, replicate 2, relative to DMSO 1%, read-out: % viability, viability 2
Method: We screened the DDPs on the Drosophila assay system for cytotoxicity, inhibitory activity of innate immune signalling and insecticidal activity. The cytotoxicity of the DDPs was evaluated using two cell lines, embryonic macrophage-derived DL1 cells[58]–[60] and larval blood cell-derived l(2)mbn cells, and their IC50 values are listed in Supplementary Table 23.
The entries below come with measured viability at 10 µM values attached.
# unit: % | format: bare number

Solved cases (2 shown):
| substance.smiles | unit.spec | viability at 10 µM |
| --- | --- | --- |
| C=C1CC[C@H]2[C@]3(C)C[C@@H](C=C(C)C)O[C@H]3CC[C@]2(C)[C@@H]1Cc1c(O)c(C)c(C)oc1=O | % | 8.05 |
| C=C1CC[C@H]2[C@]3(C)C[C@H](C=C(C)C)O[C@H]3CC[C@]2(C)[C@@H]1Cc1c(O)c(C)c(C)oc1=O | % | 7.37 |

Lab note: C=C1CC[C@@H]2[C@](C)(CC[C@H]3O[C@H](C=C(C)C)C[C@@]23C)[C@@H]1Cc1c(OC)oc(CO)c(C)c1=O gave viability at 10 µM of 1.76

====

test.system: Aβ42 (Homo sapiens)
Sequence (P05067 672-713): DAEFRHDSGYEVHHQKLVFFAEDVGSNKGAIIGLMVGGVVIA
test: Th-T (thioflavin-T) assay of Aβ42 aggregation
Format: biochemical
condition.set: compound at 20; reading M55 of time course
readout.name: Th-T fluorescence, mean of three wells

| molecule | Th-T fluorescence, mean of three wells |
| --- | --- |
| C=C1CC[C@@H]2[C@](C)(CC[C@H]3O[C@H](C=C(C)C)C[C@@]23C)[C@@H]1Cc1c(OC)oc(CO)c(C)c1=O [Compound 20] | 3.418 |
| C=C1CCC2C(C)(CCC=C(C)C)C(O)CCC2(C)C1Cc1c(OC)oc(C)c(C(=O)OC)c1=O (centres unmarked) [Compound 14] | 2.1338 |
| C=C1CCC2C(C)(CCC=C(C)C)C(O)CCC2(C)C1Cc1c(OC)oc(CO)c(C)c1=O (centres unmarked) [Compound 12] | 2.154 |
| C=C1CCC2C(C)(CCC=C(C)C)C(O)CCC2(C)C1Cc1c(OC)oc(CO)c(C(=O)OC)c1=O (centres unmarked) [Compound 13] | 0.8641 |

Okay, next one:
Lab note: C=C1CC[C@@H]2[C@](C)(CC[C@H]3O[C@H](C=C(C)C)C[C@@]23C)[C@@H]1Cc1c(OC)oc(CO)c(C(=O)OC)c1=O [Compound 21] gave Th-T fluorescence, mean of three wells of 0.224
